# assay.protocol: NCI Yeast Anticancer Drug Screen. Data for the mlh1 strain (AID 171);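 also: 0% = growth of vehicle-treated control cultures of the same strain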
# condition.label: S. cerevisiae mlh1 strain growth inhibition; at 1.2 µM; stronger effect = higher value
About 79,000 compounds went through this panel and 15% of them were active in at least one assay; those are over-represented in the sample as a whole.

- compound: "CC[C@](O)(C(=O)O)c1cc2n(c(=O)c1CO)Cc1cc3ccccc3nc1-2"
  unit: "%"
  growth inhibition: 3
- compound: "CC12CCC(C1)C(C)(C)C2OC(=O)c1ccccc1N (stereo not drawn)"
  unit: "%"
  growth inhibition: 2
- compound: "C/C(=N\\O)c1ccc2ccc3ccccc3c2c1"
  unit: "%"
  growth inhibition: 3
